assay: self-splicing fitness, log relative to wild type (ln ratio); higher = more splicing; Tetrahymena group I intron in knt gene, E. coli kanamycin selection, DiMSum; sequences stand for … in CUCUCU…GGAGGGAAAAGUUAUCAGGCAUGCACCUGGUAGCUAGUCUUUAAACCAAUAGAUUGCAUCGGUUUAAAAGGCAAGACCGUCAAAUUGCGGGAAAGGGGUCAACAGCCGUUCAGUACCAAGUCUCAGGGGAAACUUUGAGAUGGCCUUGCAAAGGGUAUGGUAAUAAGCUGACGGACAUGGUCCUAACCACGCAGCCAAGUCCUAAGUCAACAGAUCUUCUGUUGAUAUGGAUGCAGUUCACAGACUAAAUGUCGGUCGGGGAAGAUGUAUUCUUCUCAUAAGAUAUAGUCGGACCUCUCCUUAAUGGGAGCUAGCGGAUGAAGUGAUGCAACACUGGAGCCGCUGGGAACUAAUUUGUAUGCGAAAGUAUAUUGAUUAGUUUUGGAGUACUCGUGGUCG; conditions: 30 °C;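 also: selection with 25 µg/mL kanamycin versus none on LB agar overnight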
measured.property: self-splicing fitness (ln)
Please give only the number in your answer, with no unit.

Reference set, count: 5
GUCUAGCAAUAUUACGCUGA; -1.21
GAGGAGCAAUAUUACGGAUG; -3.77
GCACAGCAAUAUUACGUCGC; -3.17
GCCCAGCAAUAUUACGGUUG; -2.99
ACUUAGCAAUAUUACGCGAU; -3.66

Query string: Quick one: self-splicing fitness (ln) for CGGCAGCAAUAUUACGAUUU ?
Result string: -3.18

Query string: What do we get for ACUGAGCAAUAUUACGCCGA ?
Result string: -3.61
